Where do the numbers come from? From ChEMBL document CHEMBL4513216.

Would you kindly list cytotoxicity at 10 µM for each of these compounds?
- assay_procedure: Toxicity liver stage against HepG2, at 10uM
- Format: cell-based
- Set-up: test concentration 10 uM, cell line HepG2-A16-CD81EGFP
- applied_conditions: human, HepG2-A16-CD81EGFP cells; read-out: INHIBITION
Report the figure in % without appending any unit label.

Read off the recorded cytotoxicity at 10 µM for `O=C(NCCc1ccccn1)[C@@H]1CC[C@@H]2[C@@H](CCN2Cc2ccoc2)O1` 8.21

Report cytotoxicity at 10 µM, nothing else, for this compound: CC(C)C(NC(=O)N1CCS(=O)(=O)CC1)c1ccccc1Cl (stereo unspecified) 13.3

// Input: CC(C)(C)c1n[nH]cc1CNCC1CCN(CC(F)(F)F)C1 (stereo unspecified) . Output its cytotoxicity at 10 µM only. 3.5

Give the value of cytotoxicity at 10 µM reported for the following: O=S(=O)(c1cn[nH]c1)N1CCC(O)(CN2CCOCC2)C1 (stereo unspecified) 2.5

Give the reported cytotoxicity at 10 µM for this compound. NCC1CCCCN1C(=O)Cc1ccc(F)c(F)c1 (stereo unspecified) -1.5

Answer with the recorded cytotoxicity at 10 µM for the compound listed here: `CCCN1CCN(c2ccc(-c3nc(C)no3)cn2)CC1` 8.95

Tell me its cytotoxicity at 10 µM given COc1ccc2c(c1)OCC(CNC1CCc3nc(C)nn3C1)=C2 (stereo unspecified) as the entry. 1.84

Please report cytotoxicity at 10 µM for the following compound: `COc1cccc(CC(=O)N2CC[C@@H]3[C@H](CC2)N(C)CCS3(=O)=O)c1` 3.68

Answer with reported cytotoxicity at 10 µM of `Cc1ccnc(NCCNC(=O)c2ccccc2NCC(=O)O)c1` -12.7

Let me know recorded cytotoxicity at 10 µM for CC(=O)N1N=C(c2ccccc2)OC1C(=O)N(C)CCc1ccccc1 (stereo unspecified) , thanks. 3.54

Determine from records and report cytotoxicity at 10 µM for `COc1ccc(CN2CC(n3cccn3)C2)cc1F` -0.483

Provide measured cytotoxicity at 10 µM value, entry: `Cc1cccnc1NC(=O)c1ccc(-n2ncc(C#N)c2N)cc1` -9.35

Give a short answer stating reported cytotoxicity at 10 µM for CSc1cccc(NC(C)C(=O)Nc2nccs2)c1 (stereo unspecified) . 3.05

Please look at this compound and report its cytotoxicity at 10 µM: Cc1cc(N(C)C)nc(N2CCN(C(C)c3nc(C)no3)CC2)n1 (stereo unspecified) 2.33

For the compound `CC[C@@H]1N(Cc2ccc(F)cc2)CCC[C@]12CCC(=O)N2C` , give its reported cytotoxicity at 10 µM. 9.42

Respond only with cytotoxicity at 10 µM recorded for `CCCc1cc(CNc2cc(CCC)nc3ccnn23)on1` -6.75

Quickly give me recorded cytotoxicity at 10 µM for `CCNC(=O)[C@@H]1C[C@@H](N)CN1C(=O)Cc1cc(C)ccc1C` 1.87

Complete the entry with cytotoxicity at 10 µM for `COc1ccc(-n2cc3nc(N)[nH]cc-3c2=O)cc1Cl` 17.7

Give cytotoxicity at 10 µM for `COCC(=O)N1CCC(=O)N(C2CCCC2)Cc2ccccc21` -5.2

Hello, please tell me recorded cytotoxicity at 10 µM for this one: CCN(C(=O)CNC1CCc2ncnn2C1)C1=CCCCC1 (stereo unspecified) 0.701

State, in one line, measured cytotoxicity at 10 µM of CNC(=O)c1cccc(CNC2CCCSc3ccccc32)c1 (stereo unspecified) -2.64

Give the measured cytotoxicity at 10 µM for CC(C)(C)c1n[nH]c(C2CN(C(=O)c3cc(C4CC4)[nH]n3)CCO2)n1 (stereo unspecified) -7.2

Look up and report measured cytotoxicity at 10 µM for this entry: CC(C)c1nc(CN(C)C2CCN(CCn3cc(C#N)cn3)C2)no1 (stereo unspecified) -6.29

For the compound `O=C(CCn1ccc2ccccc21)N1CCN(Cc2cccnc2)CC1` , give its measured cytotoxicity at 10 µM value. 0.951

Look up and report measured cytotoxicity at 10 µM for this entry: CCN(CC)C1CCN(C(=O)NCc2cccc(-n3cccn3)c2)C1 (stereo unspecified) 5.79

Provide measured cytotoxicity at 10 µM value, entry: `COc1ccc(Cc2nc3c([nH]2)CC(C)(C)CNC3=O)c(OC)c1` -1.02

Give cytotoxicity at 10 µM for `CN(C(=O)c1ccnn1C)[C@@H]1CCC[C@@H](Oc2ccccc2)[C@@H]1O` -35.9

Tell me its cytotoxicity at 10 µM given `CS(=O)(=O)NC1CCN(C(=O)c2[nH]c3ccc(Cl)cc3c2Cl)CC1` as the entry. 16.3

Give the reported value of cytotoxicity at 10 µM for this record: Cc1ccc(OCC(O)CN2CCc3c(ncn3C3CC3)C2)cc1 (stereo unspecified) 0.2

For the compound `Cc1csc(CCNC(=O)N2CCC(C(N)=O)CC2)n1` , give its measured cytotoxicity at 10 µM value. -2.71

For the compound CC(C1CC1)N(C)C(=O)CCn1cccn1 (stereo unspecified) , give its measured cytotoxicity at 10 µM value. -2.37

Using the record for `CC(C)Cc1noc(CN2CCCN(C(=O)c3ccccc3Cl)CC2)n1` , state its measured cytotoxicity at 10 µM. -5.95

Please supply the value of reported cytotoxicity at 10 µM for the item `CN(Cc1cncnc1)[C@H]1CN(Cc2ccco2)[C@@H]2CCCO[C@@H]21` -78.7

// fetch cytotoxicity at 10 µM given entry `O=C(NC1CC1)[C@H]1CN(Cc2ccc3c(c2)OCO3)C[C@H]2OCC[C@@H]12` 3.56

Kindly indicate its recorded cytotoxicity at 10 µM. Item: `CC(C)Oc1ccc(C(=O)NCc2ccc3c(c2)CCCN3C)cn1` -6.63

Item COc1nc2c(cc1C(=O)N1CCCC1c1ccccn1)CCC2 (stereo unspecified) : provide cytotoxicity at 10 µM -5.54

Return value of cytotoxicity at 10 µM for input CCCn1nnnc1CN(CC)CC1COc2ccccc2O1 (stereo unspecified) , no commentary. 13.3

Provide only the value of recorded cytotoxicity at 10 µM for `Fc1cccc(CN2CCC(c3noc(-c4ccncc4)n3)CC2)c1F` -6.21

Complete the entry with cytotoxicity at 10 µM for `N#Cc1ccc(OCCCN2CCc3cncnc3C2)cc1` -10

Supply reported cytotoxicity at 10 µM belonging to this compound: `Cc1nc(N2CCOCC2)nc2c1CN(C(=O)C(C)C)CC2` 0.552

Given the compound `O=C(c1cnc(-c2noc3cc(N4CCCC4)ccc23)s1)N1CCCC1` , write its reported cytotoxicity at 10 µM. -3.83

Note cytotoxicity at 10 µM for the compound shown: `Cc1cccc(-c2nccnc2C2CCN(C)CC2)c1C` 2.14

Tell me cytotoxicity at 10 µM reported for Cc1ccc(-c2ccnc(NC(C)c3n[nH]c(=O)[nH]3)n2)c(C)n1 (stereo unspecified) 1.33

Note down cytotoxicity at 10 µM recorded for CC(Cn1ccnc1)NC(=O)N1CCCN(Cc2cccs2)CC1 (stereo unspecified) -12.4

Give reported cytotoxicity at 10 µM value for CCNC(=O)CCC(=O)NC(C)Cc1ccccc1Br (stereo unspecified) -4.99

Answer with the recorded cytotoxicity at 10 µM for the compound listed here: `COc1ccc(CC(=O)N2CCc3nc(C(=O)N(C)C)sc3CC2)cc1` 15.8
